Molecular target: MMP-2 (Homo sapiens, UniProt P08253)
Sequence (P08253 110-660): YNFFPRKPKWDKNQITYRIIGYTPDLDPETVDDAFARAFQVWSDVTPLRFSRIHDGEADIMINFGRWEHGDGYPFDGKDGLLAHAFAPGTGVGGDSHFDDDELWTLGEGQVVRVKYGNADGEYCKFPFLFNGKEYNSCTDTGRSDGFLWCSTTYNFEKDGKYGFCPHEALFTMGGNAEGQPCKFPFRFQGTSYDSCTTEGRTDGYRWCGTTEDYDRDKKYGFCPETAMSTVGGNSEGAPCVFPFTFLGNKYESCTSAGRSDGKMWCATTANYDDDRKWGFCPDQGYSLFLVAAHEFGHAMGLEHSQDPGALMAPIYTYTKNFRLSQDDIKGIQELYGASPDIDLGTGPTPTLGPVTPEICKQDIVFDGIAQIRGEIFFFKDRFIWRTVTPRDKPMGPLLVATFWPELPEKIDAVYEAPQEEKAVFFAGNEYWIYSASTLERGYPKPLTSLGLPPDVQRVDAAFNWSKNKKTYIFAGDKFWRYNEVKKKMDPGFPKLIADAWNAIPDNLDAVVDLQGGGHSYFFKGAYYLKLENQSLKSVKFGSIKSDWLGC
VALUE KIND: IC50

1. C[C@H]1c2cccc(O)c2C(=O)C2=C(O)[C@]3(O)C(=O)C(C(=O)NCN(CCO[N+](=O)[O-])CCO[N+](=O)[O-])=C(O)[C@@H](N(C)C)[C@@H]3[C@@H](O)[C@@H]21 :: 9.4 µM

Every entry's value here was drawn from patent US9566342B2.
